Tgt: Recombinant Human DLL4 (delta-like protein 4) (human) (UniProt Q9NR61)
Procedure Text: ELISA, DLL4 coated on plate, Fab at 50 nM (2-fold dilution series), absorbance at 450 nm
Assay Readout: ELISA signal
# print the numeric value only

Observe how each entry below is paired with its result.
- Fab VH5-51_IGHD5-18*01>3_IGHJ4*01 G100K/G104T G24T/S28R/G35V Y105N & V3-4_IGLJ1*01 (wildtype) (Fab, V domains shown) VH: EVQLVQSGAEVKKPGESLKISCKTSGYRFTSYWIVWVRQMPGKGLEWMGIIYPGDSDTRYSPSFQGQVTISADKSISTAYLQWSSLKASDTAMYYCARRKYSYTNDYFDYWGQGTLVTVSS VL: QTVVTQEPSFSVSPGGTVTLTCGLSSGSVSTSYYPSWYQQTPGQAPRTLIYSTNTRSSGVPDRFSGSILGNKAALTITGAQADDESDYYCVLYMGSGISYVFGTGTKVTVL: 0.18
- Fab VH5-51_IGHD5-18*01>3_IGHJ4*01 G100K/G104T G24L/S28R/G35V D109Q & V3-4_IGLJ1*01 (wildtype) (Fab, V domains shown) VH: EVQLVQSGAEVKKPGESLKISCKTSGYRFTSYWIVWVRQMPGKGLEWMGIIYPGDSDTRYSPSFQGQVTISADKSISTAYLQWSSLKASDTAMYYCARRKYSYTYDYFQYWGQGTLVTVSS VL: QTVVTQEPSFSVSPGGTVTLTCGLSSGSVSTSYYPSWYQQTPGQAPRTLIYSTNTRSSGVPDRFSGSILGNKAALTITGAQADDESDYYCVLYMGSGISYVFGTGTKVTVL: 0.25
- Fab VH5-51_IGHD5-18*01>3_IGHJ4*01 G100K/G104T G24L/S28R/G35V Y105H & V3-4_IGLJ1*01 (wildtype) (Fab, V domains shown) VH: EVQLVQSGAEVKKPGESLKISCKTSGYRFTSYWIVWVRQMPGKGLEWMGIIYPGDSDTRYSPSFQGQVTISADKSISTAYLQWSSLKASDTAMYYCARRKYSYTHDYFDYWGQGTLVTVSS VL: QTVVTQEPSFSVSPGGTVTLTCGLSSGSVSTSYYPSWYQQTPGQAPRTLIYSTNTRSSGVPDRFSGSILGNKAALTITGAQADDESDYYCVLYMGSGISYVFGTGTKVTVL: 0.2

Now let's try a different one.
Kindly note the recorded ELISA signal for Fab VH5-51_IGHD5-18*01>3_IGHJ4*01 G100K/G104T G24A/S28R/G35V Y107F & V3-4_IGLJ1*01 (wildtype) (Fab, V domains shown) VH: EVQLVQSGAEVKKPGESLKISCKTSGYRFTSYWIVWVRQMPGKGLEWMGIIYPGDSDTRYSPSFQGQVTISADKSISTAYLQWSSLKASDTAMYYCARRKYSYTYDFFDYWGQGTLVTVSS VL: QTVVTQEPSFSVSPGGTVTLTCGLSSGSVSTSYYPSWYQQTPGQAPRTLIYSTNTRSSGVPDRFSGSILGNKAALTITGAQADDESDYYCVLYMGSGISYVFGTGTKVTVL , which is 0.24

Reference source: patent US20120316071A1
